- System Name: human carbonic anhydrase 9 (CAIX) (human, UniProt Q16790 38-459)
- Test Method Notes: FACS competition on HT-29 cells against tracer 3BP-2776; pIC50 category A = pIC50 >8.0
Starred links: 1 amine or outer side, 2 acyl side, 3 side chain; linkers in the order of their positions; H or OH if unused. Positions of bridges follow the written chain, without caps; N, C: chain ends. Non-standard residues stand in square brackets, D forms with d. *: point of attachment. DOTA = O=C(O)CN1CCN(CC(=O)O)CCN(CC(=O)*)CCN(CC(=O)O)CC1; mXylylene = c1cc(C[*:1])cc(C[*:2])c1; Aic = NC1(C(=O)O)Cc2ccccc2C1; APAc = not defined here; Sar = CNCC(=O)O
Collected pIC50 values appear next to each entry.
Assay Endpoint: pIC50

1) {DOTA-APAc}-VYCE[dP]DW[Aic]TWSC-NH2 (linker 3-12 via mXylylene; reading uncertain, also called DOTA-APAc-Val-Tyr-[Cys(3MeBn)-Glu-pro-Asp-Trp-Aic-Thr-Trp-Ser-Cys]-NH2) [3BP-3586]    > 8 pic50
2) Ac-VYCE[dP]DWLTWEC-NH2 (linker 3-12 via mXylylene; not fully specified (residue 11); also: indium complexed by DOTA, also called Ac-Val-Tyr-[Cys(3MeBn)-Glu-pro-Asp-Trp-Leu-Thr-Trp-Glu(NH-Apr-O2Oc-InDOTA′)-Cys]-NH2) [3BP-3843]    > 8 pic50
3) Ac-VYCE[Sar]DWLTWAC-NH2 (linker 3-12 via mXylylene; SMILES CC(=O)N[C@H](C(=O)N[C@@H](Cc1ccc(O)cc1)C(=O)N[C@H]1CSCc2cccc(c2)CSC[C@@H](C(N)=O)NC(=O)[C@H](C)NC(=O)[C@H](Cc2c[nH]c3ccccc23)NC(=O)[C@H]([C@@H](C)O)NC(=O)[C@H](CC(C)C)NC(=O)[C@H](Cc2c[nH]c3ccccc23)NC(=O)[C@H](CC(=O)O)NC(=O)CN(C)C(=O)[C@H](CCC(=O)O)NC1=O)C(C)C, also called Ac-Val-Tyr-[Cys(3MeBn)-Glu-Nmg-Asp-Trp-Leu-Thr-Trp-Ala-Cys]-NH2) [3BP-3313]    > 8 pic50
